Measurement description: cell viability by MTT in Huh7.5 cells electroporated with Jc1-NLuc
Format: cell-based
Applied conditions: human, Jc1-NLuc electroporated Huh7.5, 48 h.p.e., mean ± SD of three experiments; read-out: Cell viability, MTT CC50, mean
Value kind: CC50 at 48 h (µM)
Form entry: value (µM) — number only.

Query block: What value of CC50 at 48 h has been reported for the following molecule? CC1(C(=O)N2CCC3(CC2)c2ccccc2[C@@H](N)[C@@H]3O)CCCCC1
Result block: 110

* * *

Measurement description: cell viability by ATPLite in SGR-feo-NS2-5B(JFH-1) harbouring Huh7.5 cells
Type: cell-based
Applied conditions: human, Huh7.5 cells harbouring SGR-feo-NS2-5B(JFH-1) replicon
Value kind: CC50 at 48 h

Query block: What value of CC50 at 48 h has been reported for the following molecule? CC1(C(=O)N2CCC3(CC2)c2ccccc2[C@@H](N)[C@@H]3O)CCCCC1
Result block: > 100 µM

* * *

Tested on: Huh7.5 cells
Measurement description: cell viability by MTT in Huh7.5 cells electroporated with SGR-luc-NS2-5B(JFH-1)
Type: cell-based
Applied conditions: MTT, Huh7.5, 48 h.p.e., single experiments in duplicate; read-out: Cell viability CC50, individual experiment
Would you kindly list CC50 for each of these compounds?

Query block: What value of CC50 has been reported for the following compound? CCC[C@H](NC(=O)[C@@H]1[C@H]2CCC[C@H]2CN1C(=O)[C@@H](NC(=O)[C@@H](NC(=O)c1cnccn1)C1CCCCC1)C(C)(C)C)C(=O)C(=O)NC1CC1 [Telaprevir, reference compound]
Result block: > 31.6 µM

Query block: What value of CC50 has been reported for the following compound? CC1(C(=O)N2CCC3(CC2)c2ccccc2[C@@H](N)[C@@H]3O)CCCCC1
Result block: > 100 µM

* * *

Measurement description: cell viability by MTT in Huh7.5 cells electroporated with Jc1-NLuc
Format: cell-based
Applied conditions: human, Jc1-NLuc electroporated Huh7.5, 48 h.p.e.; read-out: Cell viability, MTT CC50, individual experiment
Value kind: CC50 at 48 h (µM)
Form entry: value (µM) — number only.

Query block: What value of CC50 at 48 h has been reported for the following compound? CC1(C(=O)N2CCC3(CC2)c2ccccc2[C@@H](N)[C@@H]3O)CCCCC1 [Compound 160]
Result block: 93

* * *

System: SGR-luc-NS2-5B(JFH-1) sub-genomic replicon
Measurement description: transient replication assay: SGR-luc-NS2-5B(JFH-1) RNA electroporated into Huh7.5 cells, luciferase
Format: cell-based, Hepatitis C virus
Applied conditions: Hepatitis C virus, Huh7.5, transient SGR-luc-NS2-5B(JFH-1), Huh7.5, 4-48 h.p.e., Fig. 2D; read-out: NS2-5B SGR EC50, mean ± SD across experimental repeats
Would you kindly list EC50 for each of these molecules?
Form entry: value (µM) — number only.

Query block: What value of EC50 has been reported for the following molecule? CC1(C(=O)N2CCC3(CC2)c2ccccc2[C@@H](N)[C@@H]3O)CCCCC1
Result block: 12

Query block: What value of EC50 has been reported for the following molecule? CCC[C@H](NC(=O)[C@@H]1[C@H]2CCC[C@H]2CN1C(=O)[C@@H](NC(=O)[C@@H](NC(=O)c1cnccn1)C1CCCCC1)C(C)(C)C)C(=O)C(=O)NC1CC1 [Telaprevir, reference compound]
Result block: 0.176
